Where do the numbers come from? From the supplement of paper PMC10567573.

B1: ZNF263 (parent)
chain: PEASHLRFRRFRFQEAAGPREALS

# Variants of: B1
# MEASUREMENT_NOTES: protein stability index of a GFP-peptide fusion (GPS, HEK-293T) (PSI 1-6); higher = more stable;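 note: lentivirally expressed fusions sorted by FACS into six bins by GFP to DsRed ratio, PSI derived from sequencing read proportions per bin multiplied by bin number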
# PARTICULARS: c terminus: a fixed tail appended
// label = satisfied if protein stability index is not less than 3, otherwise not satisfied

Sample answers from the record:
# MUTATION_NOTATION, QUALITATIVE_LABEL
records = [
    ("F13S", "satisfied"),
    ("S24K", "not satisfied"),
    ("R10M", "satisfied"),
    ("P19W", "not satisfied"),
    ("E15N", "not satisfied"),
    ("A22K", "not satisfied"),
]

Prompt line: Does A22L have a reported protein stability index of at least 3?
Response line: not satisfied

Prompt line: Does R7I have a reported protein stability index of at least 3?
Response line: not satisfied

Prompt line: Does F13C have a reported protein stability index of at least 3?
Response line: not satisfied

Prompt line: Does F13I have a reported protein stability index of at least 3?
Response line: satisfied

Prompt line: Does E2K have a reported protein stability index of at least 3?
Response line: not satisfied

Prompt line: Does A3Q have a reported protein stability index of at least 3?
Response line: not satisfied

Prompt line: Does S4L have a reported protein stability index of at least 3?
Response line: not satisfied

Prompt line: Does L23K have a reported protein stability index of at least 3?
Response line: satisfied

Prompt line: Does G18N have a reported protein stability index of at least 3?
Response line: not satisfied

Prompt line: Does R12A have a reported protein stability index of at least 3?
Response line: satisfied

Prompt line: Does S24P have a reported protein stability index of at least 3?
Response line: not satisfied

Prompt line: Does L6D have a reported protein stability index of at least 3?
Response line: satisfied
